Biological target: Human BOAT1 (Homo sapiens, UniProt Q695T7)
Construct: expressed in transfected cells
Sequence (Q695T7 whole entry): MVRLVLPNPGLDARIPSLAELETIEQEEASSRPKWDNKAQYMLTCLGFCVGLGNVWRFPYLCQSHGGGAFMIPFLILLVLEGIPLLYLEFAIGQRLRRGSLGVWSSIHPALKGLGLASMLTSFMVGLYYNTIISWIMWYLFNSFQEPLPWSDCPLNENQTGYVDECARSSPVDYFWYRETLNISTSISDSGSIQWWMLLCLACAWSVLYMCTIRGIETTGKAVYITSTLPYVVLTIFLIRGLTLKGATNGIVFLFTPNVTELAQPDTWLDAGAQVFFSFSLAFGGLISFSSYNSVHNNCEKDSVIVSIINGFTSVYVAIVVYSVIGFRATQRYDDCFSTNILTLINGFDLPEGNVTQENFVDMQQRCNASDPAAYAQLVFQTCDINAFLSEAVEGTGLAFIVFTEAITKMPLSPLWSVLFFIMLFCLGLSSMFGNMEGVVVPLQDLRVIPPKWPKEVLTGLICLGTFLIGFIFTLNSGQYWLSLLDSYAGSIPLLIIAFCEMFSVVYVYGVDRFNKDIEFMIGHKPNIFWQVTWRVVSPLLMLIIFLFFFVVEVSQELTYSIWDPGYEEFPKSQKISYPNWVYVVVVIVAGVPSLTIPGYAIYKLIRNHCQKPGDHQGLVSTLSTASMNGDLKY
Assay: hBOAT1 inhibitory test (phenylalanine uptake)
Format: cell-based
Conditions: Human BOAT1 stable expression CHO cells; [3H]-L-phenylalanine uptake, phenylalanine 0.25 mM; radioactivity after 100 to 200 min; read-out: hB0AT1 IC50
recorded_endpoint: IC50 (nM)

O=C(O)Cc1cc2c(cc1Cl)CN(C(=O)CNC(=O)/C=C/c1ccc(C(F)(F)F)cc1)CC2 [I-226]    101
O=C(/C=C/c1ccc(C(F)(F)F)cc1)NCC(=O)N1CCCC(C23CCC(C2)C3C(=O)O)C1 (centres unmarked) [I-229]    152
O=C(O)Cc1ccc2c(c1)CCN(C(=O)CNC(=O)/C=C/c1ccc(C(F)(F)F)c(F)c1)C2 [I-189]    424
O=C(O)CCCN1CCN(C(=O)CNC(=O)/C=C/c2ccc(C(F)(F)F)cc2F)C(c2cccc(Br)c2)C1 (racemic) [I-234]    50
O=C(O)Cc1ccc2c(c1)CCN(C(=O)CNC(=O)/C=C/c1ccc(Cl)cc1F)C2 [I-186]    76
O=C(O)Cc1nc2c(s1)CCN(C(=O)CNC(=O)/C=C/c1ccc(C(F)(F)F)cc1)C2 [I-201]    54

A. C[C@@H]1CN(C(=O)CNC(=O)/C=C/c2ccc(C(F)(F)F)cc2F)[C@@H](c2ccc(C3CC3)cc2)CN1CCC(=O)O [I-382]
B. O=C(O)Cc1ccc2c(c1)CCN(C(=O)CNC(=O)/C=C/c1ccc(Br)cc1)C2 [I-184]
Qu. Please state the entry with greater IC50 among A and B . Which one? Tell me its label.
Ans. B
